tested on: KRas G12D-mediated phosphorylation of ERK in AGS cells (ATCC CRL-1739) expressing G12D; assay: Inhibition of KRas G12D-mediated Phosphorylation of ERK in AGS cells; format: cell-based; conditions: Homo sapiens; phospho-ERK(Thr202/Tyr204) normalized to GAPDH, AGS cells, 3 hours; read-out: IC50
As shown below, each of these compounds has a reported pIC50 value.
Keep in mind that pIC50 stands for -log10 of concentration in molar terms.

Example compounds with recorded pIC50:
Enquiry: Determine its reported pIC50: C#Cc1c(F)ccc2cc(O)cc(-c3ncc4c(N5C[C@H]6CC[C@@H](C5)N6)nc(OC[C@@]56CCCCN5C[C@H](F)C6)nc4c3F)c12
Return: 7.50

Enquiry: Determine its reported pIC50: CCc1cccc2cccc(-c3ncc4c(N5CC6CCC(C5)N6)nc(OC[C@]56CCCN5[C@@H](COC(=O)N5CCOCC5)CC6)nc4c3F)c12 (single isomer, unassigned)
Return: 7.13

Enquiry: Determine its reported pIC50: CC(C)N1CCC[C@H]1COc1nc(N2C[C@H]3C[C@@H](O)[C@@H](C2)N3)c2cnc(-c3cccc4cccc(Cl)c34)c(F)c2n1
Return: 5.63

Enquiry: Determine its reported pIC50: CCc1cccc2cccc(-c3ncc4c(N5CC6CCC(C5)N6)nc(OC[C@]56CCCN5[C@@H](COC(=O)NC)CC6)nc4c3F)c12 (single isomer, unassigned)
Return: 6.97

Further cases:
Enquiry: Determine its reported pIC50: Oc1cc(-c2ncc3c(N4C[C@H]5CC[C@@H](C4)N5)nc(OCCN4C[C@@H]5C[C@H]4CO5)nc3c2F)c2ccccc2c1
Return: 5.37

Enquiry: Determine its reported pIC50: O[C@@H]1C[C@@H]2CN(c3nc(OCC45CCCN4CCC5)nc4c(F)c(-c5cccc6cccc(Cl)c56)ncc34)C[C@H]1N2
Return: 5.67

Enquiry: Determine its reported pIC50: Oc1cc(-c2ncc3c(N4C[C@H]5CC[C@@H](C4)N5)nc(OCCCN4C[C@@H]5C[C@H]4CO5)nc3c2F)c2ccccc2c1
Return: 5.54

---

target: KRas G12D (Homo sapiens (Human), UniProt P01116, G12D); assay: KRas G12D Binding Assay (TR-FRET displacement of Cy5 labelled tracer); details: GDP-loaded KRAS G12D (amino acids 1:169), 60 minute incubation at 22° C.
Sequence (P01116 other isoform, or with tags, fused parts or gaps G12D): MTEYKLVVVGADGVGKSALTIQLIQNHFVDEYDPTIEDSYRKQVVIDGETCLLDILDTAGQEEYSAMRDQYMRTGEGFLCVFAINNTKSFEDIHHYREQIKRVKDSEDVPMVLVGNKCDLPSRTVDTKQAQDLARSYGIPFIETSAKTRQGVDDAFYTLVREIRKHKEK
pIC50: −log10 of the molar value.
Outcome: MET for pIC50 of at least 8; NOT MET for anything lower.

Recorded results for 5 molecules are shown here.
Enquiry: Determine whether measured pIC50 meets or exceeds 8 for O[C@@H]1C[C@@H]2CN(c3nc(OCCc4nccn4CF)nc4c(F)c(-c5cccc6cccc(Cl)c56)ncc34)C[C@H]1N2
Return: NOT MET

Enquiry: Determine whether measured pIC50 meets or exceeds 8 for Nc1nc2c(-c3ncc4c(N5C[C@H]6CC[C@@H](C5)N6)nc(OCC56CCCN5CCC6)nc4c3F)cccc2s1
Return: NOT MET

Enquiry: Determine whether measured pIC50 meets or exceeds 8 for Cc1cc2[nH]ncc2c(-c2ncc3c(N4C[C@H]5CC[C@@H](C4)N5)nc(OCC45CCCN4CCC5)nc3c2F)c1C
Return: MET

Enquiry: Determine whether measured pIC50 meets or exceeds 8 for Oc1cc(-c2ncc3c(N4CC5CCC(C4)N5)nc(OCC45CCCN4C[C@H](F)C5)nc3c2F)c2c(Cl)cccc2c1 (mixture of isomers)
Return: MET

Enquiry: Determine whether measured pIC50 meets or exceeds 8 for O=C1CCC2(COc3nc(N4C[C@H]5CC[C@@H](C4)N5)c4cnc(-c5cccc6cccc(Cl)c56)c(F)c4n3)CCCN12 (stereo partly drawn) [Example 83, bis(2,2,2-trifluoroacetate)]
Return: NOT MET

Further cases:
Enquiry: Determine whether measured pIC50 meets or exceeds 8 for CN1C[C@H](F)C[C@H]1COc1nc(N2C[C@H]3CC[C@@H](C2)N3)c2cnc(-c3cc(O)cc4ccccc34)c(F)c2n1
Return: NOT MET

Enquiry: Determine whether measured pIC50 meets or exceeds 8 for Fc1c(-c2cccc3cccc(Cl)c23)ncc2c(N3CC4CCC(C3)N4)nc(OC[C@@]34CCCN3C[C@@H](C(F)(F)F)C4)nc12 (mixture of isomers)
Return: NOT MET

Enquiry: Determine whether measured pIC50 meets or exceeds 8 for COC[C@H]1CC[C@@]2(COc3nc(N4CC5CCC(C4)N5)c4cnc(-c5cc(O)cc6ccccc56)c(F)c4n3)CCCN12 (stereo in doubt)
Return: MET

Enquiry: Determine whether measured pIC50 meets or exceeds 8 for CN1C[C@H](Oc2ccc(S(=O)(=O)F)cc2)C[C@H]1COc1nc(N2C[C@H]3CC[C@@H](C2)N3)c2cnc(-c3cccc4cccc(Cl)c34)c(F)c2n1 [Example 209, tris(2,2,2-trifluoroacetate)]
Return: NOT MET

Enquiry: Determine whether measured pIC50 meets or exceeds 8 for O[C@@H]1C[C@@H]2CN(c3nc(OCCn4ccnc4C(F)(F)F)nc4c(F)c(-c5cccc6cccc(Cl)c56)ncc34)C[C@H]1N2
Return: NOT MET
